# credit: patent US9732119B2

Listing: IC50 of selected compounds
Target: PD-1-Ig binding to PD-L1-TVMV-His (PD-L1-His) (Homo sapiens)
Construct: hPDL1(19-239)-TVMV-His; made in house; host or cells: HEK293T cells
Sequence (Q9NZQ7 with tags, fused parts or gaps): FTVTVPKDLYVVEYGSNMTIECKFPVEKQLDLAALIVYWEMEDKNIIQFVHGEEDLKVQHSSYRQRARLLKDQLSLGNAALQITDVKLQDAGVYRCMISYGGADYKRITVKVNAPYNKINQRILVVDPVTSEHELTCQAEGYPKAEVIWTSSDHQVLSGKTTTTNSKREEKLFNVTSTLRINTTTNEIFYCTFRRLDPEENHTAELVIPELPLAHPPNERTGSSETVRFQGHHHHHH
Assay: PD-1/PD-L1 Homogenous Time-Resolved Fluorescence (HTRF) binding assay
Details: PD-1-Ig (20 nM) / PD-L1-His (10 nM); range classes
Non-standard residues stand in square brackets, D forms with d. Residues, ends and D or L forms follow the SMILES beside them. Trp(1-CH2COOH) = N[C@@H](Cc1cn(CC(=O)O)c2ccccc12)C(=O)O; Hyp = O=C(O)[C@@H]1C[C@@H](O)CN1; NMeNle = CCCC[C@H](NC)C(=O)O; NMeA = CN[C@@H](C)C(=O)O; Dap = NC[C@H](N)C(=O)O; AEA = NCCOCC(=O)O

COMPOUND	IC50
CCCC[C@H]1C(=O)N(C)[C@@H](CCCC)C(=O)N[C@@H](CC(C)C)C(=O)N[C@H](C(N)=O)CNCC(=O)N[C@@H](Cc2ccc(O)cc2)C(=O)N2CCCC[C@H]2C(=O)N[C@@H](CC(=O)O)C(=O)N2CCC[C@H]2C(=O)N[C@@H](CCC(N)=O)C(=O)N[C@@H](CC(C)C)C(=O)N2C[C@H](O)C[C@H]2C(=O)N[C@@H](Cc2c[nH]c3ccccc23)C(=O)N[C@@H](CC(N)=O)C(=O)N[C@@H](Cc2cn(CC(=O)O)c3ccccc23)C(=O)N1C [Example 9034]	1 to 9.9 nM

Moving on to another compound below.
So what does the record say about IC50 for CCCC[C@H]1C(=O)N(C)[C@@H](CCCC)C(=O)N[C@@H](CC(C)C)C(=O)NCCOCC(=O)N[C@@H](Cc2ccc(O)cc2)C(=O)N(C)[C@@H](C)C(=O)N[C@@H](CC(N)=O)C(=O)N2CCC[C@H]2C(=O)N[C@@H](CN)C(=O)N[C@@H](CC(C)C)C(=O)N2C[C@H](O)C[C@H]2C(=O)N[C@@H](Cc2c[nH]c3ccccc23)C(=O)N[C@@H](CO)C(=O)N[C@@H](Cc2cn(CC(=O)O)c3ccccc23)C(=O)N1C [Example 10503] (cyclo([AEA]Y[NMeA]NP[Dap]L[Hyp]WS[Trp(1-CH2COOH)][NMeNle][NMeNle]L)) ?
10 to 99 nM

----------
Measured pIC50 by item
Molecular target: PD-1-Ig binding to PD-L1-TVMV-His (PD-L1-His) (Homo sapiens)
Construct: hPDL1(19-239)-TVMV-His; made in house; host or cells: HEK293T cells
Experiment: PD-1/PD-L1 Homogenous Time-Resolved Fluorescence (HTRF) binding assay
Conditions: PD-1-Ig (20 nM) / PD-L1-His (10 nM); range classes
pIC50: −log10 of the molar value. Non-standard residues stand in square brackets, D forms with d. Residues, ends and D or L forms follow the SMILES beside them. Trp(1-CH2COOH) = N[C@@H](Cc1cn(CC(=O)O)c2ccccc12)C(=O)O; Phe(4-Cl) = N[C@@H](Cc1ccc(Cl)cc1)C(=O)O; Hyp = O=C(O)[C@@H]1C[C@@H](O)CN1; NMeNle = CCCC[C@H](NC)C(=O)O; Pip = O=C(O)[C@@H]1CCCCN1; Dab = NCC[C@H](N)C(=O)O; Dap = NC[C@H](N)C(=O)O; Ava = NCCCCC(=O)O

COMPOUND	MEASURED_TARGET	MEASURED_METRIC	DATA_VALUE
CCCC[C@H]1C(=O)N(C)[C@@H](CCCC)C(=O)NC(CC(C)C)C(=O)N[C@H](C(=O)NCC(N)=O)CNCC(=O)N[C@@H](Cc2ccc(O)cc2)C(=O)N(C)[C@@H](C)C(=O)N[C@@H](CC(N)=O)C(=O)N2CCC[C@H]2C(=O)N[C@@H](Cc2cnc[nH]2)C(=O)N[C@@H](CC(C)C)C(=O)N2CCC[C@H]2C(=O)N[C@@H](Cc2c[nH]c3ccccc23)C(=O)N[C@@H](CC(N)=O)C(=O)N[C@@H](Cc2c[nH]c3ccccc23)C(=O)N1C (some centres unmarked)	PD-1-Ig binding to PD-L1-TVMV-His (PD-L1-His) (Homo sapiens)	pIC50	8.00 to 9.00
CCCC[C@H]1C(=O)N(C)[C@@H](CCCC)C(=O)N[C@@H](CC(C)C)C(=O)NCCCCC(=O)N[C@@H](Cc2ccc(Cl)cc2)C(=O)N2CCCC[C@H]2C(=O)N[C@@H](CC(N)=O)C(=O)N2CCC[C@H]2C(=O)N[C@@H](CN)C(=O)N[C@@H](CCC(=O)O)C(=O)N2C[C@H](O)C[C@H]2C(=O)N[C@@H](Cc2c[nH]c3ccccc23)C(=O)N[C@@H](CCN)C(=O)N[C@@H](Cc2cn(CC(=O)O)c3ccccc23)C(=O)N1C [Example 10544] (cyclo([Ava][Phe(4-Cl)][Pip]NP[Dap]E[Hyp]W[Dab][Trp(1-CH2COOH)][NMeNle][NMeNle]L))	PD-1-Ig binding to PD-L1-TVMV-His (PD-L1-His) (Homo sapiens)	pIC50	8.00 to 9.00
CCCC[C@H]1C(=O)N(C)[C@@H](CCCC)C(=O)N[C@@H](CC(C)C)C(=O)N[C@H](C(=O)NCC(N)=O)CNCC(=O)N[C@@H](Cc2ccc(O)cc2)C(=O)N(C)[C@@H](C)C(=O)N[C@@H](CC(N)=O)C(=O)N2CCC[C@H]2C(=O)N[C@@H](CN)C(=O)N[C@@H](CC(C)C)C(=O)N2C[C@H](O)C[C@H]2C(=O)N[C@@H](Cc2c[nH]c3ccccc23)C(=O)N[C@@H](CCCN)C(=O)N[C@@H](Cc2cn(CC(=O)O)c3ccccc23)C(=O)N1C	PD-1-Ig binding to PD-L1-TVMV-His (PD-L1-His) (Homo sapiens)	pIC50	8.00 to 9.00
CCCC[C@H]1C(=O)N(C)[C@@H](CCCC)C(=O)N[C@@H](CC(C)C)C(=O)N[C@H](C(=O)NCC(N)=O)CNCC(=O)N[C@@H](Cc2ccc(F)cc2)C(=O)N(C)[C@@H](C)C(=O)N[C@@H](CC(=O)O)C(=O)N2CCC[C@H]2C(=O)N[C@@H](CCC(N)=O)C(=O)N[C@@H](CCC(N)=O)C(=O)N2C[C@H](O)C[C@H]2C(=O)N[C@@H](Cc2c[nH]c3ccccc23)C(=O)N[C@@H](CC(N)=O)C(=O)N[C@@H](Cc2cn(CC(=O)O)c3ccccc23)C(=O)N1C	PD-1-Ig binding to PD-L1-TVMV-His (PD-L1-His) (Homo sapiens)	pIC50	7.00 to 8.00

State the recorded pIC50 for this entry: CCCC[C@H]1C(=O)N(C)[C@@H](CCCC)C(=O)N[C@@H](C)C(=O)N[C@H](C(=O)NCC(N)=O)CCNCC(=O)N[C@@H](Cc2ccc(O)cc2)C(=O)N(C)[C@@H](C)C(=O)N[C@@H](CC(=O)O)C(=O)N2CCC[C@H]2C(=O)N[C@@H](Cc2cnc[nH]2)C(=O)N[C@@H](CCC(N)=O)C(=O)N2C[C@H](O)C[C@H]2C(=O)N[C@@H](Cc2c[nH]c3ccccc23)C(=O)N[C@@H](CO)C(=O)N[C@@H](Cc2c[nH]c3ccccc23)C(=O)N1C
7.00 to 8.00
